procedure_text: Stability of cannabinoid compounds and Vitamin E components in Beverage 1 (AB White) by LCMSMS
Format: physicochemical
assay_setup: AB White stored at 21-25° C.; 180 days
Decision: Stability of Plant-Derived Cannabinoid Compounds in AB White, 21-25° C. >= 3 µg/mL yields Satisfied, all other cases yield Not satisfied.

1) CCCCCc1cc(O)c2c(c1)OC1(C)CCC3C1C2C3(C)C (stereo not drawn) :: Not satisfied
2) CCCCCc1cc(O)c(C/C=C(\C)CCC=C(C)C)c(O)c1 :: Satisfied
3) C=C(C)[C@@H]1CCC(C)=C[C@H]1c1c(O)cc(CCC)cc1O :: Not satisfied

Has CCCCCc1cc(O)c2c(c1)OC(C)(C)c1ccc(C)cc1-2 a recorded Stability of Plant-Derived Cannabinoid Compounds in AB White, 21-25° C. greater than or equal to 3 µg/mL?
Not satisfied

Has C=C(C)[C@@H]1CCC(C)=C[C@H]1c1c(O)cc(CCCCC)c(C(=O)O)c1O a recorded Stability of Plant-Derived Cannabinoid Compounds in AB White, 21-25° C. greater than or equal to 3 µg/mL?
Not satisfied

Has CCCCCc1cc(O)c2c(c1)OC(C)(CCC=C(C)C)C=C2 (stereo not drawn) a recorded Stability of Plant-Derived Cannabinoid Compounds in AB White, 21-25° C. greater than or equal to 3 µg/mL?
Not satisfied

Has CCCCCc1cc2c(c(O)c1C(=O)O)[C@@H]1C=C(C)CC[C@H]1C(C)(C)O2 [D9 THCA, delta-9-tetrahydrocannabinolic acid] a recorded Stability of Plant-Derived Cannabinoid Compounds in AB White, 21-25° C. greater than or equal to 3 µg/mL?
Not satisfied

Has CCCCCc1cc(O)c2c(c1)OC(C)(C)[C@@H]1CCC(C)=C[C@@H]21 [D9 THC, delta-9-tetrahydrocannabinol, reference compound] a recorded Stability of Plant-Derived Cannabinoid Compounds in AB White, 21-25° C. greater than or equal to 3 µg/mL?
Satisfied

Has CCCc1cc(O)c2c(c1)OC(C)(C)[C@@H]1CCC(C)=C[C@@H]21 [THCV, delta-9-tetrahydrocannabivarin] a recorded Stability of Plant-Derived Cannabinoid Compounds in AB White, 21-25° C. greater than or equal to 3 µg/mL?
Satisfied
